Reported values of pEC50 for individual entries
- System: Jurkat (clone E6-1) cells with NFAT luciferase reporter
- experimental_protocol: Jurkat reporter assay (NFAT Luciferase)
- Assay type: cell-based
- assay_setup: Homo sapiens; Jurkat NFAT luciferase reporter cells, anti-CD3 stimulation, 6 hr; read-out: Jurkat NFAT EC50
pEC50: −log10 of the molar value.

Reference set, count: 5
Cn1cnnc1-c1cc(F)ccc1-c1cccc(-c2cn3ccc(CN[C@@H]4CCC[C@@H]4O)cc3n2)c1 [GO-2]    6.00 to 6.70
COc1cc(CNCC2CCCC2)cc2nc(-c3cccc(-c4ccc(F)cc4-c4nncn4C)c3)oc12 [FN-1]    > 6.70
COc1cc(CN[C@@H]2C[C@H](O)C2(C)C)cc2nc(-c3cccc(-c4ccc(F)cc4-c4nncn4C)c3)oc12 [HF-1]    5.00 to 6.00
C[C@@H]1CN(Cc2cc(C(F)(F)F)c3oc(-c4cccc(-c5ccc(F)cc5-c5nncn5C)c4)nc3c2)CCO1 [Example V-1]    5.00 to 6.00
Cn1cnnc1-c1cc(F)ccc1-c1cccc(-c2nc3cc(CNC4CCC4)cc(C(F)(F)F)c3o2)c1 [GC-2]    > 6.70

Find the recorded pEC50 belonging to Cn1cnnc1-c1cc(F)ccc1-c1cc(-c2nc3cc(CNCC4(O)CCC4)ccc3o2)nc(C2CC2)c1 [AFC-1] and report it.
> 6.70

Now consider COC1(CN[C@@H](C)c2cc(F)c3oc(-c4cc(-c5ccc(F)cc5-c5nncn5C)cc(C5CC5)n4)nc3c2)CCC1 [AFS-2] .
6.00 to 6.70

----------
Reported values of EC50 for individual entries
- Tested on: Jurkat (clone E6-1) cells with NFAT luciferase reporter
- experimental_protocol: Jurkat reporter assay (NFAT Luciferase)
- Type: cell-based
- assay_setup: Homo sapiens; Jurkat NFAT luciferase reporter cells, anti-CD3 stimulation, 6 hr; read-out: Jurkat NFAT EC50

COc1cc(CN[C@@H]2CCC[C@@H]2O)cc2nc(-c3cc(-c4ccc(F)cc4-c4nncn4C)cc(C4CC4)n3)oc12    < 200 nM

Find the recorded EC50 belonging to `Cn1cnnc1-c1cc(F)ccc1-c1cccc(-c2nc3cc(C(=O)NO)cc(C(F)(F)F)c3o2)c1` and report it.
10000 to 50000 nM

Now consider `COc1cc(CNC[C@H]2CCCO2)cc2nc(-c3cccc(-c4ccc(F)cc4-c4nncn4C)c3)oc12` .
200 to 1000 nM

----------
- Tested on: Jurkat (clone E6-1) cells with NFAT luciferase reporter
- experimental_protocol: Jurkat reporter assay (NFAT Luciferase)
- Assay type: cell-based
- assay_setup: Homo sapiens; Jurkat NFAT luciferase reporter cells, anti-CD3 stimulation, 6 hr; read-out: Jurkat NFAT EC50
Reported values of EC50 for individual entries

Reference set, count: 4
Cn1cnnc1-c1cc(F)ccc1-c1cc(Cl)nc(-c2nc3cc(CN[C@@H]4CCC[C@@H]4O)cc(C(F)(F)F)c3[nH]2)c1    < 200 nM
Cn1cnnc1-c1cc(F)ccc1-c1cccc(-c2cn3ccc(CO)cc3n2)c1    10000 to 50000 nM
CC(=O)NCc1cc(C(F)(F)F)c2oc(-c3cccc(-c4ccc(F)cc4-c4nncn4C)c3)nc2c1    1000 to 10000 nM
Cn1cnnc1-c1cc(F)ccc1-c1cccc(-c2nc3cc(CNCC4(C#N)CCOCC4)cc(C(F)(F)F)c3o2)c1    200 to 1000 nM

Find the recorded EC50 belonging to `Cn1cnnc1-c1cc(F)ccc1-c1cccc(-c2nc3cc(CNC4CCC4)c(F)c(F)c3o2)c1` and report it.
< 200 nM

Now consider `COCCNCc1cc(C)c2oc(-c3cccc(-c4ccc(F)cc4-c4nncn4C)c3)nc2c1F` .
1000 to 10000 nM
